- target: Very long chain fatty acid elongase 1 (Homo sapiens, UniProt Q9BW60)
- Sequence (Q9BW60 whole entry): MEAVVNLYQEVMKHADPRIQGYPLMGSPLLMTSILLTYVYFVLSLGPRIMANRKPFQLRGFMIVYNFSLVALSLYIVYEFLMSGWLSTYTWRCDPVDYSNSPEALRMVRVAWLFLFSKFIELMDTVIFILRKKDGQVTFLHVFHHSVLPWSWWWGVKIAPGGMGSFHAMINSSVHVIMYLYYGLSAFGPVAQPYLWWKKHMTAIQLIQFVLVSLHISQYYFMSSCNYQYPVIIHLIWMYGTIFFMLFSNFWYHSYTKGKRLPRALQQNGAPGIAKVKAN
- assayRemarks: Inhibition of ELOVL1 in CALD patient-derived human lymphocyte assessed as reduction of C26:0 VLCFA synthesis incubated for 48 hrs by cellular assay
- Format: cell-based
propertyLabel: IC50

INSERT INTO results (smilesnotation, assayvalue) VALUES
  ('O=C(Nc1ccn(-c2ccnc(F)c2)n1)C1(c2ccccc2F)CC1', '15 nM');

---

- assayRemarks: Clearance in Beagle dog at 0.5 mg/kg, iv upto 48 hrs by LC/MS/MS analysis
- Assay type: ADME, organism-based, Canis lupus familiaris
- conditionInfo: in vivo
propertyLabel: clearance

INSERT INTO measurements (smilesnotation, assayvalue) VALUES
  ('O=C(Nc1ccn(-c2ccnc(F)c2)n1)C1(c2ccccc2F)CC1', '30.4 mL/min/kg');
